The measurements presented in this section are drawn from patent US6737383B1.

- Test system: wheat
- experiment.notes: Test B pre/postemergence wheat
- Assay type: in vivo, Triticum aestivum
- measurement.parameters: Preemergence, Rate 125 g/ha; 0 is no effect, 10 is complete control
assay.metric: Wheat plant response rating (0 to 10 scale)

{"columns": ["molecule", "target.or.test.system", "recorded.result"],
 "data": [
  ["CC(C)N(C(=O)n1oc(=O)n(-c2ccnn2C)c1=O)c1ccc(F)cc1 [Compound 124]", "wheat", 0],
  ["Cc1ccccc1-n1c(=O)on(C(=O)N(c2ccc(Br)cc2)C(C)C)c1=O [Compound 175]", "wheat", 0],
  ["CC(C)N(C(=O)n1oc(=O)n(Cc2ccccc2Cl)c1=O)c1ccc(F)cc1 [Compound 140]", "wheat", 0],
  ["CCCn1c(=O)on(C(=O)N(c2ccc(F)cc2F)C(C)C)c1=O [Compound 130]", "wheat", 3],
  ["CCCn1c(=O)on(C(=O)N(c2ccc(F)cc2)C(C)C)c1=O [Compound 91]", "wheat", 4]
]}

----------
- System: surinam grass
- experiment.notes: Test B pre/postemergence surinam grass
- Type: in vivo, Brachiaria decumbens
- measurement.parameters: Rate 125 g/ha, Postemergence; scale of 0 to 10 where 0 is no effect and 10 is complete control
Listed here: items and their measured B. signalgrass plant response rating.

{"columns": ["compound", "B. signalgrass plant response rating"],
 "data": [
  ["COC(Cn1c(=O)on(C(=O)N(c2ccc(F)cc2)C(C)C)c1=O)OC [Compound 317]", 1],
  ["CC(C)N(C(=O)n1oc(=O)n(C2CCOCC2)c1=O)c1ccc(F)cc1 [Compound 310]", 3],
  ["Cc1ccccc1-n1c(=O)on(C(=O)N(c2ccc(OC(F)(F)F)cc2)C(C)C)c1=O [Compound 300]", 0],
  ["CC(C)N(C(=O)n1oc(=O)n(CC(C)(C)C)c1=O)c1ccc(F)cc1F [Compound 277]", 0],
  ["CCN(C(=O)n1oc(=O)n(C2CCCCC2)c1=O)C1CCCCC1 [Compound 308]", 0],
  ["C=CCn1c(=O)on(C(=O)N(c2ccc(Cl)cc2)C(C)C2CC2)c1=O (stereo not drawn) [Compound 325]", 0]
]}

----------
- Tested on: purple nutsedge
- experiment.notes: Test B pre/postemergence purple nutsedge
- Assay type: in vivo, Cyperus rotundus
- measurement.parameters: Preemergence, Rate 125 g/ha; scale of 0 to 10 where 0 is no effect and 10 is complete control
- Experimental: […] At the same time, these crop and weed species were also treated with postemergence applications of test chemicals formulated in the same manner. […] Treated plants and controls were maintained in a greenhouse for twelve to sixteen days, after which all species were compared to controls and visually evaluated. […]

{"columns": ["compound", "Plant response rating, Nutsedge"],
 "data": [
  ["COP(=O)(CCn1c(=O)on(C(=O)N(c2ccc(Cl)cc2)C(C)C)c1=O)OC", 0],
  ["C#CCn1c(=O)on(C(=O)N(c2ccccc2)C(C)C)c1=O", 3],
  ["CC(C)N(C(=O)n1oc(=O)n(CCl)c1=O)c1ccccc1", 0],
  ["Cc1nc(C)c(C(C)n2c(=O)on(C(=O)N(c3ccccc3)C(C)C)c2=O)s1 (stereo not shown)", 0],
  ["CC(=O)OCC(CCl)n1c(=O)on(C(=O)N(c2ccc(F)cc2F)C(C)C)c1=O (racemic)", 0],
  ["CC(C)N(C(=O)n1oc(=O)n(C(C)C=O)c1=O)c1ccccc1 (stereo not shown)", 0],
  ["CC(C)N(C(=O)n1oc(=O)n(CCBr)c1=O)c1ccccc1", 0]
]}

----------
- System: soybean
- experiment.notes: Test B pre/postemergence soybean
- Assay type: in vivo, Glycine max
- measurement.parameters: Rate 250 g/ha, Postemergence; scale of 0 to 10 where 0 is no effect and 10 is complete control
assay.metric: Plant response rating, Soybean

{"columns": ["compound", "recorded.result"],
 "data": [
  ["CC(C)N(C(=O)n1oc(=O)n(CCCF)c1=O)c1ccccc1", 5],
  ["CCC=CCn1c(=O)on(C(=O)N(c2ccccc2)C(C)C)c1=O", 3],
  ["CC(C)N(C(=O)n1oc(=O)n(CCCC(F)(F)F)c1=O)c1ccc(F)cc1F", 3],
  ["C=CCn1c(=O)on(C(=O)N(CC)C2CCCCC2)c1=O", 2],
  ["C=CCn1c(=O)on(C(=O)N(c2ccc(Cl)cc2)C(C)C2CC2)c1=O (stereo not shown)", 1],
  ["C=CCCCn1c(=O)on(C(=O)N(c2ccc(Cl)cc2)C(C)C)c1=O", 2],
  ["CCN(C(=O)n1oc(=O)n(C2CCCCC2)c1=O)C1CCCCC1", 1]
]}

----------
Listed here: items and their measured Plant response rating, Wheat.
- System: wheat
- experiment.notes: Test B pre/postemergence wheat
- Type: in vivo, Triticum aestivum
- measurement.parameters: Preemergence, Rate 250 g/ha; scale 0 to 10 (0 no effect, 10 complete control)
assay.metric: Plant response rating, Wheat

{"columns": ["compound", "target.or.test.system", "recorded.result"],
 "data": [
  ["C=C(Cc1ccccc1)Cn1c(=O)on(C(=O)N(c2ccccc2)C(C)C)c1=O", "wheat", 0],
  ["C#CC(C)n1c(=O)on(C(=O)N(c2ccc(Cl)cc2)C(C)C)c1=O (racemic)", "wheat", 0],
  ["C#CC=CC(C)(C)n1c(=O)on(C(=O)N(c2ccccc2)C(C)C)c1=O", "wheat", 0],
  ["CC(C)N(C(=O)n1oc(=O)n(CC2CCCCO2)c1=O)c1ccccc1 (stereo not shown)", "wheat", 2]
]}

----------
- System: soybean
- experiment.notes: Test B pre/postemergence soybean
- Assay type: in vivo, Glycine max
- measurement.parameters: Preemergence, Rate 500 g/ha; scale of 0 to 10 where 0 is no effect and 10 is complete control
assay.metric: Soybean plant response rating

{"columns": ["smiles.text", "target.or.test.system", "recorded.result"],
 "data": [
  ["C=CCCCn1c(=O)on(C(=O)N(c2ccc(Cl)cc2)C(C)C)c1=O", "soybean", 0],
  ["Cc1nnsc1Cn1c(=O)on(C(=O)N(c2ccccc2)C(C)C)c1=O", "soybean", 0],
  ["Cc1c(-n2c(=O)on(C(=O)N(c3ccccc3)C(C)C)c2=O)ccc2ccccc12", "soybean", 0],
  ["CC(C)N(C(=O)n1oc(=O)n(CCC#N)c1=O)c1ccc(F)cc1", "soybean", 4],
  ["CC(C)N(C(=O)n1oc(=O)n(CCCCF)c1=O)c1ccc(F)cc1F", "soybean", 10],
  ["CCN(C(=O)n1oc(=O)n(C2CCCCC2)c1=O)C1CCCCC1", "soybean", 0],
  ["CC(C)N(C(=O)n1oc(=O)n(C2CCOCC2)c1=O)c1ccc(F)cc1", "soybean", 5],
  ["CC(C)N(C(=O)n1oc(=O)n(CCCF)c1=O)c1ccccc1", "soybean", 3],
  ["CC(C)N(C(=O)n1oc(=O)n(-c2ccc3ccccc3c2)c1=O)c1ccc(Cl)cc1", "soybean", 0]
]}

----------
- System: velvetleaf
- experiment.notes: Test B pre/postemergence velvetleaf
- Format: in vivo, Abutilon theophrasti
- measurement.parameters: Postemergence, Rate 125 g/ha; scale of 0 to 10 where 0 is no effect and 10 is complete control

{"columns": ["molecule", "Velvetleaf plant response rating"],
 "data": [
  ["CC(C)N(C(=O)n1oc(=O)n(-c2ccnn2C)c1=O)c1ccc(F)cc1", 0],
  ["C=C(Cc1ccccc1)Cn1c(=O)on(C(=O)N(c2ccccc2)C(C)C)c1=O", 0],
  ["CCn1c(=O)on(C(=O)N(c2ccccc2)C(C)C)c1=O", 3],
  ["CC(C)N(C(=O)n1oc(=O)n(C(C)(C)C)c1=O)c1ccc(Cl)cc1", 0],
  ["CC(C)N(C(=O)n1oc(=O)n(C[C@H](C)Cl)c1=O)c1ccc(Cl)cc1", 0],
  ["COC(=O)C(CCO)n1c(=O)on(C(=O)N(c2ccc(F)cc2)C(C)C)c1=O (centres unmarked)", 0],
  ["CCCn1c(=O)on(C(=O)N(c2ccc(F)cc2F)C(C)C)c1=O", 3],
  ["C#CC=CC(C)(C)n1c(=O)on(C(=O)N(c2ccccc2)C(C)C)c1=O", 0]
]}

----------
- System: blackgrass
- experiment.notes: Test B pre/postemergence blackgrass
- Format: in vivo, Alopecurus myosuroides
- measurement.parameters: Preemergence, Rate 62 g/ha; scale 0 to 10 (0 no effect, 10 complete control)
Listed here: items and their measured Blackgrass plant response rating.

{"columns": ["smiles.text", "Blackgrass plant response rating"],
 "data": [
  ["Cc1ccccc1Cn1c(=O)on(C(=O)N(c2ccc(F)cc2F)C(C)C)c1=O", 2],
  ["CC(C)N(C(=O)n1oc(=O)n(Cc2ccccc2Cl)c1=O)c1ccc(F)cc1", 0],
  ["CC(C)N(C(=O)n1oc(=O)n(C[Si](C)(C)C)c1=O)c1ccccc1", 0],
  ["COc1cccc(C)c1-n1c(=O)on(C(=O)N(c2ccc(F)cc2F)C(C)C)c1=O", 0],
  ["CC(C)N(C(=O)n1oc(=O)n(C(CF)CF)c1=O)c1ccc(F)cc1F", 6],
  ["CC(C)N(C(=O)n1oc(=O)n(CCC2OCCCO2)c1=O)c1ccccc1", 5]
]}
